Numbers sourced from paper PMC3504033.

MEASURED TARGET: Angiotensin-I Converting Enzyme from rabbit lung (Oryctolagus cuniculus)
Construct: Angiotensin-I Converting Enzyme from rabbit lung; purchased Sigma (Barcelona, Spain); host or cells: rabbit lung tissue
Sequence (P12822 34-1310): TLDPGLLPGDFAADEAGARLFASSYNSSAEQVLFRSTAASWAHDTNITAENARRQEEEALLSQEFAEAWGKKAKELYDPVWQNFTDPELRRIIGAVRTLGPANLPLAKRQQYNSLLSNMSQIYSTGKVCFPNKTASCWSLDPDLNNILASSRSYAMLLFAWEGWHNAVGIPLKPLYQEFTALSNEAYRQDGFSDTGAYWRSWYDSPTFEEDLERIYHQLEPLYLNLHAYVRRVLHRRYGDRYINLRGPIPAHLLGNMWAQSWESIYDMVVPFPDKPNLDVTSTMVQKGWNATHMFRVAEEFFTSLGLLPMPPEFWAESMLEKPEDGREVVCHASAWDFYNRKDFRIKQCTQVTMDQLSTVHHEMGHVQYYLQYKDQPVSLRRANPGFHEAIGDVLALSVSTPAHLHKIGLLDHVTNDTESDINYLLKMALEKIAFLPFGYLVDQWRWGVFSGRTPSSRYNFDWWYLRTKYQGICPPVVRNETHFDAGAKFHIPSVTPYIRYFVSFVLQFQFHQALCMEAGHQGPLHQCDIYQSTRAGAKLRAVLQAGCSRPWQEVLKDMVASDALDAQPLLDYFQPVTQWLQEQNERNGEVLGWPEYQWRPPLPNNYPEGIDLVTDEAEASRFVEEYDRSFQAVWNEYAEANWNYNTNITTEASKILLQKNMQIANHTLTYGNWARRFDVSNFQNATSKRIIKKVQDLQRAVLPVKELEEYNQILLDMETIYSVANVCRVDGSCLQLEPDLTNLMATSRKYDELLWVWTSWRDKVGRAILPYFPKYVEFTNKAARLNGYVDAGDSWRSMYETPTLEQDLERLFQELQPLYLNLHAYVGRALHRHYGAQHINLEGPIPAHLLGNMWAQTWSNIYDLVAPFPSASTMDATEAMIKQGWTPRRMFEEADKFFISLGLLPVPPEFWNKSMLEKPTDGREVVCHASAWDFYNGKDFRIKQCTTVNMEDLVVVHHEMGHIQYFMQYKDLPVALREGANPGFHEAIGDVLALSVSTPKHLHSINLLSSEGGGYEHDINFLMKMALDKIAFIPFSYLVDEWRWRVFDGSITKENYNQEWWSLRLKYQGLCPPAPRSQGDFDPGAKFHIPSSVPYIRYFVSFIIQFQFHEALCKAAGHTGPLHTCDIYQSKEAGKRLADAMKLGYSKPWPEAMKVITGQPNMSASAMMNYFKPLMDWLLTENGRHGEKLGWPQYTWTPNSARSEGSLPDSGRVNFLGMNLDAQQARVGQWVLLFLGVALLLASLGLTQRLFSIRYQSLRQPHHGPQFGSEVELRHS
ASSAY INFO: ACE-inhibitory (ACEI) activity, fluorimetric assay with o-Abz-Gly-p-Phe(NO2)-Pro substrate
Type: biochemical
CONDITIONS: 100 µM; compared with luteolin (Figure 3)
Description: o-aminobenzoylglycyl-p-nitro-phenylalanylproline (o-ABz-Gly-Phe(NO2)-Pro) was purchased from Bachem Feinchemikalien (Bubendorf, Switzerland). […] ACEI activity was measured by a fluorimetric assay following the method of Sentandreu and Toldrá [43] with some modifications. […] Fluorescence was measured after 30 min in 96-well microplates (Thermo Scientific, Rochester, NY) using a multiscan microplate fluorimeter (Biotek. FL×800). […]
ASSAY ENDPOINT: change of ACEI activity on structural change, vs. luteolin (%)
Numbers only, in %.

[
  {
    "COMPOUND": "C[C@@H]1O[C@@H](OC[C@H]2O[C@@H](Oc3c(-c4ccc(O)c(O)c4)oc4cc(O)cc(O)c4c3=O)[C@H](O)[C@@H](O)[C@@H]2O)[C@H](O)[C@H](O)[C@H]1O [Rutin, quercetin 3-O-glycoside]",
    "UOM": "%",
    "OBS VALUE": -36
  },
  {
    "COMPOUND": "COc1ccc(-c2cc(=O)c3c(O)cc(O)cc3o2)cc1O [Diosmetin]",
    "UOM": "%",
    "OBS VALUE": "−78"
  }
]

Field: change of ACEI activity on structural change, vs. luteolin. Fill in for each record below.
1. O=c1c(O)c(-c2ccc(O)c(O)c2)oc2cc(O)cc(O)c12 [Quercetin]
2. O=c1cc(-c2ccc(O)cc2)oc2cc(O)cc(O)c12 [Apigenin]
3. Oc1cc(O)c2c(c1)O[C@H](c1ccc(O)c(O)c1)[C@H](O)C2 [Epicatechin]

Result:
["−44", "−57", "−74"]
